Tested Target: GlmU (Mycobacterium tuberculosis, UniProt P9WMN3)
Sequence (P9WMN3 whole entry, looked up): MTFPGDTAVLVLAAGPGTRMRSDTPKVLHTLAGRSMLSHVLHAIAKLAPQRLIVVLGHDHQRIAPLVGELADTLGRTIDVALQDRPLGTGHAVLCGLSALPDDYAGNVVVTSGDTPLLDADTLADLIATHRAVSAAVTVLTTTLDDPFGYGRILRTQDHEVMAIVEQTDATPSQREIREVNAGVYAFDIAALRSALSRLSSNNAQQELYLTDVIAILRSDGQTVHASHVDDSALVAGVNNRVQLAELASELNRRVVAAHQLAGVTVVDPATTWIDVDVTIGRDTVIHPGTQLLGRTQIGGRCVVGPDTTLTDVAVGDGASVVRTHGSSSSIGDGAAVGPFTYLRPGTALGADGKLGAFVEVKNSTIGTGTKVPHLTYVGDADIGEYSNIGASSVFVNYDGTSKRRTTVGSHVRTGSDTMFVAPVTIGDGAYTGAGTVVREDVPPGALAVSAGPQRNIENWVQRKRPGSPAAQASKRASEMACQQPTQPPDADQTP
Assay Text: acetyltransferase DTP absorbance assay (CoA-SH release)
Type: biochemical
Measured Quantity: IC50 (mM)

1) CC(C)(COP(=O)(O)OP(=O)(O)OC[C@H]1O[C@@H](n2cnc3c(N)ncnc32)[C@H](O)[C@@H]1OP(=O)(O)O)[C@@H](O)C(=O)NCCC(=O)NCCS
0.3

* * *

Tested Target: GlmU (Mycobacterium tuberculosis)
Assay Text: acetyltransferase inhibition assay
Assay type: biochemical
Measurement Setup: Km concentrations of Ac-CoA and GlcN-1P, pH 7.5, 30 °C, 10 mM MgCl2; read-out: IC50 (mM) ^b, ^c
Measured Quantity: IC50 (mM)

1) N[C@H]1C(O)O[C@H](COP(=O)(O)O)[C@@H](O)[C@@H]1O (stereo partly shown)
10

* * *

Tested Target: GlmU (Mycobacterium tuberculosis, UniProt P9WMN3)
Assay Text: acetyltransferase inhibition assay
Assay type: biochemical
Measurement Setup: Km concentrations of Ac-CoA and GlcN-1P, pH 7.5, 30 °C, 10 mM MgCl2; acetyltransferase site; read-out: no inhibition at ≤10 mM
Measured Quantity: IC50

1) CC(=O)N[C@@H]1C(O)O[C@H](CO)[C@@H](O)[C@@H]1O (stereo partly shown)
> 10 mM
2) O=P(O)(O)OC[C@H]1OC(O)[C@@H](O)[C@@H](O)[C@@H]1O (stereo partly shown) [mannose 6-phosphate]
> 10 mM
3) O=P(O)(O)OC[C@H]1OC(O)[C@H](O)[C@@H](O)[C@@H]1O (stereo partly shown) [glucose 6-phosphate]
> 10 mM
4) CC(=O)N[C@H]1C(O)O[C@H](CO)[C@H](O)[C@@H]1O (stereo partly shown)
> 10 mM

* * *

Tested Target: GlmU (Mycobacterium tuberculosis)
Assay Text: biochemical
Assay type: binding
Measurement Setup: read-out: Kd (μM) ^b
Recorded measurements of Kd, one per entry
Measured Quantity: Kd (µM)

1. CCC(=O)SCCNC(=O)CCNC(=O)[C@H](O)C(C)(C)COP(=O)(O)OP(=O)(O)OC[C@H]1O[C@@H](n2cnc3c(N)ncnc32)[C@H](O)[C@@H]1OP(=O)(O)O
500
2. CC(=O)SCCNC(=O)CCNC(=O)[C@H](O)C(C)(C)COP(=O)(O)OP(=O)(O)OC[C@H]1O[C@@H](n2cnc3c(N)ncnc32)[C@H](O)[C@@H]1OP(=O)(O)O
250

* * *

Recorded measurements of IC50, one per entry
Tested Target: GlmU (Mycobacterium tuberculosis, UniProt P9WMN3)
Assay Text: acetyltransferase inhibition assay
Assay type: biochemical
Measurement Setup: read-out: IC50 (mM) ^b, ^c
Measured Quantity: IC50 (mM)

1) CC(C)(COP(=O)(O)OP(=O)(O)OC[C@H]1O[C@@H](n2cnc3c(N)ncnc32)[C@H](O)[C@@H]1OP(=O)(O)O)[C@@H](O)C(=O)NCCC(=O)NCCSC(=O)CC(=O)O
2
2) O=P(O)(O)O[C@H]1O[C@H](CO)[C@@H](O)[C@H](O)[C@H]1O
5
3) CCCC(=O)SCCNC(=O)CCNC(=O)[C@H](O)C(C)(C)COP(=O)(O)OP(=O)(O)OC[C@H]1O[C@@H](n2cnc3c(N)ncnc32)[C@H](O)[C@@H]1OP(=O)(O)O
1
4) CC(C)C(=O)SCCNC(=O)CCNC(=O)[C@H](O)C(C)(C)COP(=O)(O)OP(=O)(O)OC[C@H]1O[C@@H](n2cnc3c(N)ncnc32)[C@H](O)[C@@H]1OP(=O)(O)O
2
5) C/C=C/C(=O)SCCNC(=O)CCNC(=O)[C@H](O)C(C)(C)COP(=O)(O)OP(=O)(O)OC[C@H]1O[C@@H](n2cnc3c(N)ncnc32)[C@H](O)[C@@H]1OP(=O)(O)O
1

* * *

Tested Target: GlmU (Mycobacterium tuberculosis)
Assay Text: acetyltransferase dead-end inhibition, initial velocities versus GlcN-1P
Assay type: biochemical
Measurement Setup: read-out: Kis
Measured Quantity: Ki

1. O=P(O)(O)O[C@H]1O[C@H](CO)[C@@H](O)[C@H](O)[C@H]1O
4.1 mM

* * *

Tested Target: GlmU (Mycobacterium tuberculosis)
Assay Text: biochemical
Format: binding
Measurement Setup: read-out: Kd
pKd: −log10 of the molar value.
Measured Quantity: pKd

1. O=P(O)(O)O[C@H]1O[C@H](CO)[C@@H](O)[C@H](O)[C@H]1O
2.77

* * *

Tested Target: GlmU (Mycobacterium tuberculosis, UniProt P9WMN3)
Assay Text: acetyltransferase inhibition assay
Type: biochemical
Measurement Setup: read-out: no inhibition at ≤10 mM
Measured Quantity: IC50

1) O=P(O)(O)O[C@H]1O[C@H](CO)[C@@H](O)[C@H](O)[C@@H]1O [mannose 1-phosphate]
> 10 mM

* * *

Tested Target: GlmU (Mycobacterium tuberculosis, UniProt P9WMN3)
Assay Text: acetyltransferase dead-end inhibition, initial velocities versus Ac-CoA
Assay type: biochemical
Measurement Setup: read-out: Kis
pKi: −log10 of the molar value.
Measured Quantity: pKi

1) CCCC(=O)SCCNC(=O)CCNC(=O)[C@H](O)C(C)(C)COP(=O)(O)OP(=O)(O)OC[C@H]1O[C@@H](n2cnc3c(N)ncnc32)[C@H](O)[C@@H]1OP(=O)(O)O [Bu-CoA]
3.46

* * *

Tested Target: GlmU (Mycobacterium tuberculosis)
Assay Text: biochemical
Format: binding
Measurement Setup: read-out: Kd (mM) ^c
Recorded measurements of Kd, one per entry
Measured Quantity: Kd (mM)

1) CCCC(=O)SCCNC(=O)CCNC(=O)[C@H](O)C(C)(C)COP(=O)(O)OP(=O)(O)OC[C@H]1O[C@@H](n2cnc3c(N)ncnc32)[C@H](O)[C@@H]1OP(=O)(O)O [Bu-CoA]
3.8
2) CC(C)(COP(=O)(O)OP(=O)(O)OC[C@H]1O[C@@H](n2cnc3c(N)ncnc32)[C@H](O)[C@@H]1OP(=O)(O)O)[C@@H](O)C(=O)NCCC(=O)NCCS [CoA-SH]
0.7
